Data provenance is patent US10676429B2.

# protocolDetails: Cytotoxicity in HepG2 cells, 4 days, Resazurin assay
# conditions: human, HepG2 cells
Listed here are compounds together with their documented CC50 at 4 days.

Worked examples, 3 compounds total:
[
  {
    "compound": "CCC(C)(C)NS(=O)(=O)c1cccc(C(=O)Nc2ccc(F)c(C)c2)c1",
    "CC50 at 4 days": "> 25 µM"
  },
  {
    "compound": "Cc1cc(NC(=O)c2cccc(S(=O)(=O)NC(C)CCc3ccccc3)c2)ccc1F (centres unmarked)",
    "CC50 at 4 days": "> 25 µM"
  },
  {
    "compound": "Cc1cc(NC(=O)c2cccc(S(=O)(=O)NC3CCCC(O)C3)c2)ccc1F (centres unmarked)",
    "CC50 at 4 days": "> 25 µM"
  }
]

Lookup: Please give the measured CC50 at 4 days for this compound: Cc1cc(NC(=O)c2cccc(S(=O)(=O)NC(C)c3ccncc3)c2)ccc1F (centres unmarked)
Found: > 25 µM

Lookup: Please give the measured CC50 at 4 days for this compound: Cc1cc(NC(=O)c2cccc(S(=O)(=O)NC(C)c3ccccn3)c2)ccc1F (centres unmarked)
Found: > 25 µM

Lookup: Please give the measured CC50 at 4 days for this compound: Cc1ccc(NC(=O)c2cccc(S(=O)(=O)NC3CCCC3)c2)cc1F
Found: 13.8 µM

Lookup: Please give the measured CC50 at 4 days for this compound: CC1(NS(=O)(=O)c2ccc(Br)c(C(=O)Nc3ccc(F)c(C#N)c3)c2F)COC1
Found: > 25 µM

Lookup: Please give the measured CC50 at 4 days for this compound: Cc1cc(NC(=O)c2cccc(S(=O)(=O)NC(C)CN3CCOCC3)c2)ccc1F (centres unmarked)
Found: > 25 µM

Lookup: Please give the measured CC50 at 4 days for this compound: COc1ccc(NC(=O)c2cccc(S(=O)(=O)N[C@H]3CCOC3)c2)cc1C
Found: > 25 µM

Lookup: Please give the measured CC50 at 4 days for this compound: Cc1cc(NC(=O)c2cccc(S(=O)(=O)NC(C)C)c2)cc(F)c1F
Found: > 25 µM

Lookup: Please give the measured CC50 at 4 days for this compound: COC(=O)N1CCCC(NS(=O)(=O)c2cccc(C(=O)Nc3ccc(F)c(C)c3)c2)C1 (racemic)
Found: > 25 µM

Lookup: Please give the measured CC50 at 4 days for this compound: O=C(Nc1ccccc1)c1c[nH]c(S(=O)(=O)NC2CCCCC2)n1
Found: > 100 µM

Lookup: Please give the measured CC50 at 4 days for this compound: O=C(Nc1ccccc1)c1ccc(S(=O)(=O)N2CCCCC2)o1
Found: 62.5 µM

Lookup: Please give the measured CC50 at 4 days for this compound: Cc1cc(NC(=O)c2cccc(S(=O)(=O)N[C@H](C)c3ccccc3)c2)ccc1F
Found: 14.6 µM

Lookup: Please give the measured CC50 at 4 days for this compound: Cc1cc(NC(=O)c2cccc(S(=O)(=O)N[C@H]3CCC[C@@H]3O)c2)ccc1F
Found: > 25 µM

Lookup: Please give the measured CC50 at 4 days for this compound: CC(C)NS(=O)(=O)c1cccc(C(=O)Nc2ccc(F)c(F)c2)c1
Found: > 25 µM

Lookup: Please give the measured CC50 at 4 days for this compound: Cc1cc(NC(=O)c2cccc(S(=O)(=O)NC3CC(O)C3)c2)ccc1F (centres unmarked)
Found: > 25 µM

====

# System: HBV
# protocolDetails: Anti-HBV activity in stable transfected HepG2.2.15 cell line (HBV DNA from secreted virions, realtime PCR)
# Format: cell-based
# conditions: HepG2.2.15 cells, 6 days of treatment, secreted virion HBV DNA; read-out: HepG2 2.15 EC50
Note to self: class = bucket of EC50, per bucket 1: < 300 nM; bucket 2: ≥ 300 nM and < 500 nM; bucket 3: ≥ 500 nM

[
  {
    "compound": "Cc1cc(NC(=O)c2cccc(S(=O)(=O)NC3CC(=O)N(C)C3)c2)ccc1F (racemic) [Compound 179a]",
    "labelValue": "bucket 2"
  },
  {
    "compound": "Cc1cc(NC(=O)c2cccc(S(=O)(=O)NC3Cc4ccccc4C3O)c2)ccc1F (single isomer, unassigned) [Compound 141a]",
    "labelValue": "bucket 3"
  },
  {
    "compound": "Cc1cc(NC(=O)c2cccc(S(=O)(=O)NC3CCCC(O)C3)c2)ccc1F (single isomer, unassigned) [Compound 134b]",
    "labelValue": "bucket 3"
  },
  {
    "compound": "Cc1cc(NC(=O)c2cccc(S(=O)(=O)NC3CCC(O)C3)c2)ccc1F (single isomer, unassigned) [Compound 145a]",
    "labelValue": "bucket 1"
  },
  {
    "compound": "Cc1cc(NC(=O)c2cccc(S(=O)(=O)NC3CCCC(O)C3)c2)ccc1F (single isomer, unassigned) [Compound 134d]",
    "labelValue": "bucket 1"
  },
  {
    "compound": "Cc1cc(NC(=O)c2cccc(S(=O)(=O)NC3Cc4ccccc4C3O)c2)ccc1F (single isomer, unassigned) [Compound 141b]",
    "labelValue": "bucket 1"
  },
  {
    "compound": "Cc1cc(NC(=O)c2cccc(S(=O)(=O)NC3Cc4ccccc4C3O)c2)ccc1F (single isomer, unassigned) [Compound 141d]",
    "labelValue": "bucket 3"
  },
  {
    "compound": "Cc1cc(NC(=O)c2cccc(S(=O)(=O)NC3CC(=O)N(C)C3)c2)ccc1F (racemic) [Compound 179b]",
    "labelValue": "bucket 3"
  },
  {
    "compound": "Cc1cc(NC(=O)c2cccc(S(=O)(=O)NC3CCC(O)C3)c2)ccc1F (single isomer, unassigned) [Compound 145b]",
    "labelValue": "bucket 2"
  },
  {
    "compound": "Cc1cc(NC(=O)c2cccc(S(=O)(=O)NC3CCCC(O)C3)c2)ccc1F (single isomer, unassigned) [Compound 134a]",
    "labelValue": "bucket 3"
  }
]

Lookup: Hey, which category is COC(=O)N1CCCC(NS(=O)(=O)c2cccc(C(=O)Nc3ccc(F)c(C)c3)c2)C1 (racemic) [Compound 159a] in, do you know?
Found: bucket 1

Lookup: Hey, which category is Cc1cc(NC(=O)c2cccc(S(=O)(=O)NC3Cc4ccccc4C3O)c2)ccc1F (single isomer, unassigned) [Compound 141c] in, do you know?
Found: bucket 1

Lookup: Hey, which category is COC(=O)N1CCCC(NS(=O)(=O)c2cccc(C(=O)Nc3ccc(F)c(C)c3)c2)C1 (racemic) [Compound 159b] in, do you know?
Found: bucket 1

Lookup: Hey, which category is Cc1cc(NC(=O)c2cccc(S(=O)(=O)NC3CCC(O)C3)c2)ccc1F (single isomer, unassigned) [Compound 145d] in, do you know?
Found: bucket 2

Lookup: Hey, which category is Cc1cc(NC(=O)c2cccc(S(=O)(=O)NC3CCC(O)C3)c2)ccc1F (single isomer, unassigned) [Compound 145c] in, do you know?
Found: bucket 2

====

Listed here are molecules together with their documented CC50 at 4 days.
# protocolDetails: Cytotoxicity in HepG2 cells, 4 days, Resazurin assay
# conditions: human, HepG2 cells

Lookup: Please give the measured CC50 at 4 days for this molecule: CC(C)NS(=O)(=O)c1cccc(C(=O)Nc2ccc(F)c(C(F)F)c2)c1
Found: > 25 µM

Lookup: Please give the measured CC50 at 4 days for this molecule: Cc1cc(NC(=O)c2cccc(S(=O)(=O)N[C@H]3CCOC3)c2C)ccc1F
Found: > 25 µM

Lookup: Please give the measured CC50 at 4 days for this molecule: O=C(Nc1cc(F)cc(F)c1)c1cccc(S(=O)(=O)NC2CCCC2)c1
Found: 10.1 µM

Lookup: Please give the measured CC50 at 4 days for this molecule: Cc1cc(NC(=O)c2cccc(S(=O)(=O)NC(C)C3CCN(C)CC3)c2)ccc1F (stereo not shown)
Found: > 25 µM

Lookup: Please give the measured CC50 at 4 days for this molecule: Cc1cc(NC(=O)c2cccc(S(=O)(=O)N[C@H]3CC[C@H](O)CC3)c2)ccc1F
Found: > 25 µM

Lookup: Please give the measured CC50 at 4 days for this molecule: Cc1cc(NC(=O)c2cccc(S(=O)(=O)N[C@H](C)[C@@H](O)c3ccccc3)c2)ccc1F
Found: > 25 µM

Lookup: Please give the measured CC50 at 4 days for this molecule: Cc1cc(NC(=O)c2cccc(S(=O)(=O)N[C@@H](C)C3CCCCC3)c2)ccc1F
Found: 18.2 µM

Lookup: Please give the measured CC50 at 4 days for this molecule: Cc1ccc(S(=O)(=O)N[C@H](C)C(F)(F)F)c(F)c1C(=O)Nc1cc(F)c(F)c(Cl)c1
Found: 13.5 µM

Lookup: Please give the measured CC50 at 4 days for this molecule: Cc1ccc(S(=O)(=O)NC2(C)COC2)cc1C(=O)Nc1ccc(F)c(C(F)(F)F)c1
Found: > 25 µM

Lookup: Please give the measured CC50 at 4 days for this molecule: Cc1cc(NC(=O)c2cccc(S(=O)(=O)N[C@@H]3CCc4ccccc4[C@@H]3O)c2)ccc1F
Found: 23.7 µM

Lookup: Please give the measured CC50 at 4 days for this molecule: Cc1cc(NC(=O)c2c(C)ccc(S(=O)(=O)NC(C)(C)C)c2F)ccc1F
Found: > 25 µM

Lookup: Please give the measured CC50 at 4 days for this molecule: CC[C@@H](C)NS(=O)(=O)c1cccc(C(=O)Nc2ccc(F)cc2)c1
Found: > 25 µM

Lookup: Please give the measured CC50 at 4 days for this molecule: CC1(NS(=O)(=O)c2ccc(Cl)c(C(=O)Nc3ccc(F)c(C(F)F)c3)c2)COC1
Found: > 25 µM

Lookup: Please give the measured CC50 at 4 days for this molecule: Cc1cc(NC(=O)c2c(Cl)ccc(S(=O)(=O)N[C@H]3CCOC3)c2Cl)ccc1F
Found: > 25 µM

Lookup: Please give the measured CC50 at 4 days for this molecule: Cc1cc(NC(=O)c2cc(S(=O)(=O)N[C@H]3CCOC3)ccc2Br)ccc1F
Found: > 25 µM

Lookup: Please give the measured CC50 at 4 days for this molecule: Cc1cc(NC(=O)c2cccc(S(=O)(=O)NC3(C)COC3)c2)ccc1F
Found: > 25 µM
